Each record here notes measured pIC50.
# system under test: PARG (Homo sapiens, UniProt Q86W56)
# Sequence (Q86W56 whole entry): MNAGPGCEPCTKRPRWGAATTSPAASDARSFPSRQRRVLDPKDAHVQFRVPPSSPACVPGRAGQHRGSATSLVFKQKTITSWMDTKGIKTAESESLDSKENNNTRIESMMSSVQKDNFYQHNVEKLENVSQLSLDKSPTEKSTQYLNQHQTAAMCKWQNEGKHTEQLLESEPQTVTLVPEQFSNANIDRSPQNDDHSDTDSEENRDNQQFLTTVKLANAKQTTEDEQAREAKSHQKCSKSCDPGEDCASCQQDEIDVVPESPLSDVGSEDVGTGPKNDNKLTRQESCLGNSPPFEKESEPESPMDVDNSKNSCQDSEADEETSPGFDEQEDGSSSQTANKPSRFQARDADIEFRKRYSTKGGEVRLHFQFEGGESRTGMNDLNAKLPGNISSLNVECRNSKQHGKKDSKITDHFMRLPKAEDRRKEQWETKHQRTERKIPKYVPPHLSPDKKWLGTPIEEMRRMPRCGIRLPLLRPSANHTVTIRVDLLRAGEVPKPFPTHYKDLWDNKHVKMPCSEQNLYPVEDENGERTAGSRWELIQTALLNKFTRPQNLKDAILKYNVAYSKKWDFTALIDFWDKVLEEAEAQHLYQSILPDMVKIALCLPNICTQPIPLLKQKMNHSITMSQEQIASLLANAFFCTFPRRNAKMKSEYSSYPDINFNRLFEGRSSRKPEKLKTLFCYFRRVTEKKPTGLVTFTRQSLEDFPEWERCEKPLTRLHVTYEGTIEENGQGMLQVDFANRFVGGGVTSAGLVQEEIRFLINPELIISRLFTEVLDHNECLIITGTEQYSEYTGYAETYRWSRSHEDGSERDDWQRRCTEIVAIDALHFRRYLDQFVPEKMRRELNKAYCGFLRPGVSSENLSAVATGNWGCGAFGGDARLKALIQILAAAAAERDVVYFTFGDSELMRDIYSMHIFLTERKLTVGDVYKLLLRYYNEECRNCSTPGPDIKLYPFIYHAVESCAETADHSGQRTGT
# measurement notes: Inhibition of PARG enzymatic assay (TR-FRET enzymatic IC50 assay)
# Type: biochemical
# Design: purchased Peak Proteins
# run parameters: hPARG 250 pM, biotinylated-PARylated PARP substrate 30 nM
pIC50: −log10 of the molar value.

Lookup: Supply pIC50 value. Item: COc1cc(-c2cc(S(=O)(=O)NC3(C(N)=O)CC3)cc3c2cnn3-c2nnc(C(F)F)s2)ncn1 [Example 19]
Found: 6.00 to 6.52

Continuing:
Lookup: Supply pIC50 value. Item: CNC(=O)C1CCN(c2cc(S(=O)(=O)NC3(C#N)CC3)cc3c2cnn3-c2nnc(C(F)F)s2)C1 (stereo not drawn) [Example 53]
Found: 6.52 to 7.00

====

Each record here notes measured pIC50.
# system under test: PARG (Homo sapiens, UniProt Q86W56)
# measurement notes: Inhibition of PARG enzymatic assay (TR-FRET enzymatic IC50 assay)
# Assay type: biochemical
# Design: purchased Peak Proteins
# run parameters: hPARG 250 pM, biotinylated-PARylated PARP substrate 30 nM
pIC50: −log10 of the molar value.

Lookup: Supply pIC50 value. Item: N#CC1(NS(=O)(=O)c2cc(N3C[C@H]4COC[C@H]4C3)c3cnn(-c4nnc(C(F)F)s4)c3c2)CC1 [Example 48]
Found: 6.52 to 7.00

Lookup: Supply pIC50 value. Item: N#CC1(NS(=O)(=O)c2cc(N3CCN4C(=O)CC[C@H]4C3)c3cnn(-c4nnc(C(F)F)s4)c3c2)CC1 [Example 59]
Found: ≥ 7.00

Lookup: Supply pIC50 value. Item: N#CC1(NS(=O)(=O)c2cc(N3CCN(C(=O)c4ccccn4)CC3)c3cnn(-c4nnc(C(F)F)s4)c3c2)CC1 [Example 87]
Found: ≥ 7.00

Now look at this entry.
Lookup: Supply pIC50 value. Item: CC(C)C(=O)N1[C@H](C)CN(c2cc(S(=O)(=O)NC3(C#N)CC3)cc3c2cnn3-c2nnc(C(F)F)s2)C[C@@H]1C [Example 89]
Found: ≥ 7.00

====

Each record here notes measured IC50.
# system under test: UniProt Q86W56
# measurement notes: Inhibition of PARG enzymatic assay (TR-FRET enzymatic IC50 assay)
# Type: biochemical
# Set-up: purchased Peak Proteins
# run parameters: hPARG 250 pM, biotinylated-PARylated PARP substrate 30 nM

Lookup: Supply IC50 value. Item: N#CC1(NS(=O)(=O)c2cc(N3CCC4(CCO4)CC3)c3cnn(-c4nnc(C(F)F)s4)c3c2)CC1 [Example 41]
Found: 100 to 300 nM

Lookup: Supply IC50 value. Item: C[C@@H]1CN(c2cc(S(=O)(=O)NC3(C#N)CC3)cc3c2cnn3-c2nnc(C(F)F)s2)CCN1C(=O)N(C)C [Example 35]
Found: ≤ 100 nM

Now look at this entry.
Lookup: Supply IC50 value. Item: N#CC1(NS(=O)(=O)c2cc(N3CCN4C(=O)OC[C@@H]4C3)c3cnn(-c4nnc(C(F)F)s4)c3c2)CC1 [Example 62]
Found: ≤ 100 nM

====

Each record here notes measured pIC50.
# system under test: UniProt Q86W56
# measurement notes: Inhibition of PARG cellular assay (PAR foci in HeLa cells after MMS);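 note: IC50 from mean nuclear PAR foci intensity not percent-positive cells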
# Assay type: cell-based
# Design: endogenous in cells; host or cells: HeLa
# run parameters: compound 1 h then MMS 1 h
pIC50: −log10 of the molar value.

Lookup: Supply pIC50 value. Item: N#CC1(NS(=O)(=O)c2cc(-c3ccnnc3)c3cnn(-c4nnc(C(F)F)s4)c3c2)CC1 [Example 10]
Found: 5.00 to 6.00

Continuing:
Lookup: Supply pIC50 value. Item: C[C@@H]1CN(c2cc(S(=O)(=O)NC3(C#N)CC3)cc3c2cnn3-c2nnc(C(F)F)s2)CCN1C(=O)C1CCN(CC(F)F)CC1 [Example 106]
Found: ≥ 7.00

Lookup: Supply pIC50 value. Item: N#CC1(NS(=O)(=O)c2cc(N3CC4(COC4)C3)c3cnn(-c4nnc(C(F)F)s4)c3c2)CC1 [Example 45]
Found: 6.00 to 6.52

Lookup: Supply pIC50 value. Item: N#CC1(NS(=O)(=O)c2cc(-c3cccnc3)c3cnn(-c4nnc(C(F)F)s4)c3c2)CC1 [Example 17]
Found: 5.00 to 6.00

Lookup: Supply pIC50 value. Item: N#CC1(NS(=O)(=O)c2cc(-c3ccncc3)c3cnn(-c4nnc(C(F)F)s4)c3c2)CC1 [Example 16]
Found: 5.00 to 6.00

====

Each record here notes measured IC50.
# system under test: PARG (Homo sapiens, UniProt Q86W56)
# measurement notes: Inhibition of PARG enzymatic assay (TR-FRET enzymatic IC50 assay)
# Assay type: biochemical
# Design: purchased Peak Proteins
# run parameters: hPARG 250 pM, biotinylated-PARylated PARP substrate 30 nM

Example entries begin here.
Lookup: Supply IC50 value. Item: CC(C)C(=O)N1CCN(c2cc(S(=O)(=O)NC3(C#N)CC3)cc3c2ccn3-c2nnc(C(F)F)s2)CC1 [Example 28]
Found: ≤ 100 nM

Lookup: Supply IC50 value. Item: CC(C)C(=O)N1CCN(c2cc(S(=O)(=O)NC(C)(C)C)cc3c2cnn3-c2nnc(C(F)F)s2)CC1 [Example 99]
Found: 100 to 300 nM

Lookup: Supply IC50 value. Item: N#CC1(NS(=O)(=O)c2cc(N3CCC(O)CC3)c3cnn(-c4nnc(C(F)F)s4)c3c2)CC1 [Example 27]
Found: ≤ 100 nM

Lookup: Supply IC50 value. Item: Cn1cc(-c2cc(S(=O)(=O)NC3(C#N)CC3)cc3c2cnn3-c2nnc(C(F)F)s2)ccc1=O [Example 5]
Found: ≤ 100 nM

Continuing:
Lookup: Supply IC50 value. Item: CC(C)C(=O)N1CCN(c2cc(S(=O)(=O)NC3(C#N)CC3)cc3c2cnn3-c2nnc(C(F)F)s2)C[C@H]1C [Example 82]
Found: ≤ 100 nM

Lookup: Supply IC50 value. Item: Cc1nnc(-n2ncc3c(N4CCN(C(=O)C(C)C)CC4)cc(S(=O)(=O)NC4(C#N)CC4)cc32)s1 [Example 97]
Found: ≤ 100 nM

Lookup: Supply IC50 value. Item: CN(C)C(=O)C1CCN(c2cc(S(=O)(=O)NC3(C#N)CC3)cc3c2cnn3-c2nnc(C(F)F)s2)CC1 [Example 51]
Found: 100 to 300 nM

Lookup: Supply IC50 value. Item: CC(C)C(=O)N1CCN(c2cc(S(=O)(=O)NC3(C#N)CC3)cc3c2cnn3-c2nnc(C(F)F)s2)CC1 [Example 38]
Found: ≤ 100 nM

====

# system under test: PARG (Homo sapiens)
# measurement notes: Inhibition of PARG cellular assay (PAR foci in HeLa cells after MMS);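 note: IC50 from mean nuclear PAR foci intensity not percent-positive cells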
# Format: cell-based
# Set-up: endogenous in cells; host or cells: HeLa
# run parameters: compound 1 h then MMS 1 h
pIC50: −log10 of the molar value.
property: pIC50

Example entries begin here.
Lookup: Supply pIC50 value. Item: N#CC1(NS(=O)(=O)c2cc(N3CCN(C(=O)C4CCN(CC(F)F)CC4)CC3)c3cnn(-c4nnc(C(F)F)s4)c3c2)CC1
Found: 6.52 to 7.00

Lookup: Supply pIC50 value. Item: N#CC1(NS(=O)(=O)c2cc(N3CCC(O)CC3)c3cnn(-c4nnc(C(F)F)s4)c3c2)CC1
Found: 6.00 to 6.52

Lookup: Supply pIC50 value. Item: CC(C)C(=O)N1[C@@H]2CC[C@H]1CN(c1cc(S(=O)(=O)NC3(C#N)CC3)cc3c1cnn3-c1nnc(C(F)F)s1)C2
Found: ≥ 7.00

Lookup: Supply pIC50 value. Item: CN(C)C(=O)N1CCN(c2cc(S(=O)(=O)NC3(C)CC3)cc3c2cnn3-c2nnc(C(F)F)s2)CC1
Found: ≥ 7.00

Lookup: Supply pIC50 value. Item: N#CC1(NS(=O)(=O)c2cc(N3CCN(C(=O)C4CCC4)CC3)c3cnn(-c4nnc(C(F)F)s4)c3c2)CC1
Found: ≥ 7.00

Continuing:
Lookup: Supply pIC50 value. Item: CNC(=O)C1CCN(c2cc(S(=O)(=O)NC3(C#N)CC3)cc3c2cnn3-c2nnc(C(F)F)s2)CC1
Found: 5.00 to 6.00

Lookup: Supply pIC50 value. Item: N#CC1(NS(=O)(=O)c2cc(C3CC3)c3cnn(-c4nnc(C(F)F)s4)c3c2)CC1
Found: 5.00 to 6.00

Lookup: Supply pIC50 value. Item: COc1nccc(-c2cc(S(=O)(=O)NC3(C#N)CC3)cc3c2cnn3-c2nnc(C(F)F)s2)n1
Found: 6.00 to 6.52

Lookup: Supply pIC50 value. Item: Cn1cc(-c2cc(S(=O)(=O)NC3(C#N)CC3)cc3c2cnn3-c2nnc(C(F)F)s2)ccc1=O
Found: 6.00 to 6.52

Lookup: Supply pIC50 value. Item: N#CC1(NS(=O)(=O)c2cc(N3CCN(C=O)CC3)c3cnn(-c4nnc(C(F)F)s4)c3c2)CC1
Found: 6.00 to 6.52

Lookup: Supply pIC50 value. Item: COc1cc(-c2cc(S(=O)(=O)NC3(C#N)CC3)cc3c2cnn3-c2nnc(C(F)F)s2)ncn1
Found: 6.00 to 6.52

Lookup: Supply pIC50 value. Item: CN1CC2CN(c3cc(S(=O)(=O)NC4(C#N)CC4)cc4c3cnn4-c3nnc(C(F)F)s3)CCN2C1=O (single isomer, unassigned) [Example 71]
Found: 6.52 to 7.00
